Data origin: paper PMC9804084

Experiment: In vivo microdialysis pharmacokinetics of LVFX without transporter inhibitors
Set-up: species or system rat
Conditions: rat, brain ECF, iv, 50 mg/kg, pH 9, brain ECF; Group 3: physiological saline alkalinized with NaOH (pH 9.0–9.2) + LVFX 50 mg/kg; mean ± SD, n=3

smilesRepresentation	half-life [min]
C[C@H]1COc2c(N3CCN(C)CC3)c(F)cc3c(=O)c(C(=O)O)cn1c23	49.8

* * *

Test system: Multidrug resistance-associated proteins (MRPs)
Experiment: In vivo microdialysis pharmacokinetics of LVFX with MRPs inhibitor MK571
Parameters: species or system rat
Details: rat, brain ECF (hippocampal microdialysate, unbound), intravenous, with MK571 20 mg/kg i.p., 30 min before LVFX; brain ECF; MK571 group, MK571 20 mg/kg i.p. + LVFX 50 mg/kg; N=5

smilesRepresentation	systemUnderTest	units	Tmax
C[C@H]1COc2c(N3CCN(C)CC3)c(F)cc3c(=O)c(C(=O)O)cn1c23	Multidrug resistance-associated proteins (MRPs)	min	15
